# Tested on: log phase E. coli
# Assay Info: MIC against log phase E. coli
# Assay type: cell-based, Escherichia coli
Assay Metric: MIC

response.value for `CO[C@@]12[C@H](COC(N)=O)C3=C(C(=O)C(C)=C(N)C3=O)N1C[C@@H]1N[C@@H]12` (field: MIC) = 0.3 µg/mL

====

# System: stationary phase E. coli
# Assay Info: Bactericidal activity against stationary phase E. coli (CFU counts)
# Type: cell-based, Escherichia coli
# Cond: Escherichia coli; 12.50 μg/ml; read-out: Log kill
Counter-ions that a name gives are not always drawn.
Measured log reduction at 12.5 µg/mL, listed per entry.
// no unit string in output, number only

response.value for CN1CCN(CCCN2c3ccccc3Sc3ccc(C(F)(F)F)cc32)CC1 [Trifluoperazine hydrochloride] (field: log reduction at 12.5 µg/mL) = 6.14

response.value for CN(C)CCCN1c2ccccc2Sc2ccc(C(F)(F)F)cc21 [Triflupromazine hydrochloride] (field: log reduction at 12.5 µg/mL) = 6.14

response.value for CCN(CC)CCCC(C)Nc1c2ccc(Cl)cc2nc2ccc(OC)cc12 (stereo not drawn) [Quinacrine hydrochloride] (field: log reduction at 12.5 µg/mL) = 2.14
